The reported numbers originate from the supplement of paper PMC6555819.

# Tested on: PPARg:RXRa 90nM:30nM, anti-RXR (NR concentration 90 nM, RXRa partner concentration 30 nM)
# runDescription: PBM binding z-score (relative to random genomic background probes); higher = stronger binding; sequences stand for … in GC…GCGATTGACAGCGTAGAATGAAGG
# PBM binding z-score listing for each entry below
Could you keep your reply to the number by itself?

Some solved cases for reference:
[
  {
    "inputSequence": "ATCTCTAGGTTACCAAGTTCAGTGAATGCCGAAC",
    "targetUnderTest": "PPARg:RXRa 90nM:30nM, anti-RXR (NR concentration 90 nM, RXRa partner concentration 30 nM)",
    "number": 0.955
  },
  {
    "inputSequence": "GCTCGGAGGACAAGGTAAGAGCTTTGTCCGTAGA",
    "targetUnderTest": "PPARg:RXRa 90nM:30nM, anti-RXR (NR concentration 90 nM, RXRa partner concentration 30 nM)",
    "number": -0.841
  },
  {
    "inputSequence": "TCTCGGAGGCCACGAAGGTCAGAGCTTTCCAGAG",
    "targetUnderTest": "PPARg:RXRa 90nM:30nM, anti-RXR (NR concentration 90 nM, RXRa partner concentration 30 nM)",
    "number": 1.54
  },
  {
    "inputSequence": "ATCTCTAGGTAACACTCAGTTCAGTGAAGAACGC",
    "targetUnderTest": "PPARg:RXRa 90nM:30nM, anti-RXR (NR concentration 90 nM, RXRa partner concentration 30 nM)",
    "number": 0.515
  },
  {
    "inputSequence": "CCTATTAGTTGACCATAAGGGAAACCGAAGCTCG",
    "targetUnderTest": "PPARg:RXRa 90nM:30nM, anti-RXR (NR concentration 90 nM, RXRa partner concentration 30 nM)",
    "number": 0.381
  }
]

I am curious: what PBM binding z-score value has been reported for "ACTAGTTGGTCAGCTGAGGTCGCACACAATTCGG" ? 0.316

----------
# PBM binding z-score listing for each entry below
# System: THRa:RXRa (NR concentration 90 nM, RXRa partner concentration 90 nM)
# runDescription: PBM binding z-score (relative to random genomic background probes); higher = stronger binding; sequences stand for … in GC…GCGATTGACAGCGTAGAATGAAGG
Could you keep your reply to the number by itself?

I am curious: what PBM binding z-score value has been reported for "ACTTACGGGTCGACGAGGTTATAGCACGCGTATA" ? 3.05

I am curious: what PBM binding z-score value has been reported for "CGAACTAGGTCACCGGAAGGTCAAAGTCCGCATG" ? 4.36

I am curious: what PBM binding z-score value has been reported for "GATACAGGGTCAGCTAGAGGCCAGAGTATGGAAA" ? 3.08

I am curious: what PBM binding z-score value has been reported for "TCATATCGGTAATACAGGTGAAAGTCGGCATCTA" ? 0.59

I am curious: what PBM binding z-score value has been reported for "GCTATTAGTTGAAAGCGCAACCGAATGATTCTCG" ? -0.508

I am curious: what PBM binding z-score value has been reported for "CCGACTGGGGCATAAGGTTACCATAAGCCAGCCC" ? 2.01

I am curious: what PBM binding z-score value has been reported for "ACTAGCAGGCAAAGGGTCACTCAAGATTAGTCCG" ? 2.58

I am curious: what PBM binding z-score value has been reported for "CCTAACGGGTCACGAGGTTATAGCACGACGAGCG" ? 3.44

----------
# Test system: LXRa:RXRa (NR concentration 270 nM, RXRa partner concentration 90 nM)
# runDescription: PBM binding z-score (relative to random genomic background probes); higher = stronger binding; sequences stand for … in GC…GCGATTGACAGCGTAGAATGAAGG
# PBM binding z-score listing for each entry below
Could you keep your reply to the number by itself?

Some solved cases for reference:
[
  {
    "inputSequence": "GCCGCTAGGTCAGGTTGGTCAGCTAACGGGTACG",
    "targetUnderTest": "LXRa:RXRa (NR concentration 270 nM, RXRa partner concentration 90 nM)",
    "PBM binding z-score": 0.593
  },
  {
    "inputSequence": "CCTGCTAGGTCAATGGTCATCTAAAGCAGCTCGC",
    "targetUnderTest": "LXRa:RXRa (NR concentration 270 nM, RXRa partner concentration 90 nM)",
    "PBM binding z-score": 2.28
  },
  {
    "inputSequence": "TGTCAAAGTTCAAAGGTAACCTAAGTATCCACAC",
    "targetUnderTest": "LXRa:RXRa (NR concentration 270 nM, RXRa partner concentration 90 nM)",
    "PBM binding z-score": 6.43
  },
  {
    "inputSequence": "CCGTGTAGGTTATGGGGCATTCAGGCAACGGTGA",
    "targetUnderTest": "LXRa:RXRa (NR concentration 270 nM, RXRa partner concentration 90 nM)",
    "PBM binding z-score": 0.731
  }
]

I am curious: what PBM binding z-score value has been reported for "ACTAGTTGGTCAGATGAGGTCACACACAATTCGG" ? 3.41

I am curious: what PBM binding z-score value has been reported for "TGAGACAGGTGAAGGTAACTCAGGTACGCAGTCG" ? 1.11

I am curious: what PBM binding z-score value has been reported for "ACAGAAAGGTGATGAAGGTAACTCAGGCTATCAT" ? 0.618

I am curious: what PBM binding z-score value has been reported for "TGGCAAAGTTCAAAGGTAACGTAAGTATCCACAC" ? 6.17

----------
# PBM binding z-score listing for each entry below
# Test system: PPARg DBDmut:RXRa IVT, anti-PPARg (DBD mutation: PPARg1 K132A/R137A, NR concentration 270 nM, RXRa partner concentration 90 nM)
# runDescription: PBM binding z-score (relative to random genomic background probes); higher = stronger binding; sequences stand for … in GC…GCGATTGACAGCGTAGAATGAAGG
Could you keep your reply to the number by itself?

Some solved cases for reference:
[
  {
    "inputSequence": "TCTATTAGTTGATTAGGGCAACCCAAACAGCGGA",
    "PBM binding z-score": 1.32
  },
  {
    "inputSequence": "ACATACAGGTGAGTGAAGGTAACTCAGCTGGACG",
    "PBM binding z-score": 0.417
  },
  {
    "inputSequence": "ATATGTAGGTAAAGGGTCATTCAGGTTGGTTCGC",
    "PBM binding z-score": 2.33
  },
  {
    "inputSequence": "CGTTCAAGGTCAGCAGGTCAGTGAAAGCGACGTG",
    "PBM binding z-score": 0.78
  },
  {
    "inputSequence": "CCTACTGGGCCAGAGGTCATTGATTCCAATGCTC",
    "PBM binding z-score": 0.0395
  }
]

I am curious: what PBM binding z-score value has been reported for "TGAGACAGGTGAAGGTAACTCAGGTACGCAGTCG" ? 0.178

----------
# Tested on: RARa homodimer (NR concentration 270 nM)
# runDescription: PBM binding z-score (relative to random genomic background probes); higher = stronger binding; sequences stand for … in GC…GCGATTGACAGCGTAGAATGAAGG
endpointLabel: PBM binding z-score
Could you keep your reply to the number by itself?

Some solved cases for reference:
[
  {
    "inputSequence": "TCGAGTAAGTTAGTCGGGGCATTCAGCCAACATA",
    "targetUnderTest": "RARa homodimer (NR concentration 270 nM)",
    "PBM binding z-score": -0.863
  },
  {
    "inputSequence": "AGAATGAGGATACCAAAGATCAGGGAAACGCTTG",
    "targetUnderTest": "RARa homodimer (NR concentration 270 nM)",
    "PBM binding z-score": -0.258
  },
  {
    "inputSequence": "ATATGTAGGTGAGCTGGGGTCATTCAGACTAGGC",
    "targetUnderTest": "RARa homodimer (NR concentration 270 nM)",
    "PBM binding z-score": 0.796
  }
]

# query: PBM binding z-score | item "CCTAGCAGGCCAATCTGGGTCACTGAAGGCTTGA" | system: RARa homodimer (NR concentration 270 nM) -0.428

# query: PBM binding z-score | item "CCTACTGGGCCATTCAAAGGTCATTGATCATATG" | system: RARa homodimer (NR concentration 270 nM) 0.686

# query: PBM binding z-score | item "CGCACTAGGTCAGAACAGGACAGTGAAGGATGAT" | system: RARa homodimer (NR concentration 270 nM) 0.474

# query: PBM binding z-score | item "TAGCCTAGGTCATTGGGCCAGCATAGTACGCATC" | system: RARa homodimer (NR concentration 270 nM) -0.399

# query: PBM binding z-score | item "AATACAGGGTCATCGTAGGCCAGAGTTCGCACAG" | system: RARa homodimer (NR concentration 270 nM) 0.95

# query: PBM binding z-score | item "AGAAGGAGGGCACGCTGAGTTGATAGCAGAGTAG" | system: RARa homodimer (NR concentration 270 nM) -0.141

# query: PBM binding z-score | item "CGAACTAGGTCATTGAGAGGACAGTGAATAGTAA" | system: RARa homodimer (NR concentration 270 nM) -0.238

# query: PBM binding z-score | item "TGAATGAGGTTATAAGATCAGGGTACGTTGCAAA" | system: RARa homodimer (NR concentration 270 nM) 0.229

# query: PBM binding z-score | item "TCGAGTAGGTTAGGGGCACTCAGAATGGCGTCGA" | system: RARa homodimer (NR concentration 270 nM) -0.62

# query: PBM binding z-score | item "GTACCAAGGTGAATAGTTCGTTGATGAGTAGGCG" | system: RARa homodimer (NR concentration 270 nM) 0.742

# query: PBM binding z-score | item "CCTAGTTGGTCAAGGTCACACAGGCTATAGGTAC" | system: RARa homodimer (NR concentration 270 nM) 2.03
